- ASSAY INFO: MITF-driven TRPM1 luciferase induction in melanoma cells – cell-based, SK-MEL-5, single point, primary screen (AID 588334)
- CONDITION SET: SK-MEL-5 TRPM1-promoter luciferase, 24 h; at 12.5 µM; active compounds read high; % of positive control, neutral wells = 0
About 2,300 (0.77%) of roughly 300,000 compounds were called active. Shown is part of a subset that was picked to be rich in actives.
Classify by measured activation: criterion met if it is equal to or exceeds 20%, criterion not met if it is smaller.

The following molecules have reported results that may help.
For this molecule, is measured activation 20% or higher? "COCCNC(=O)Cn1cc(C(=O)c2cccs2)c2ccccc21"
criterion not met

activation >= 20% for "CCOC(=O)c1ccccc1OC(=O)Oc1ccccc1C(=O)OCC" ?
criterion not met

Is reported activation greater than or equal to 20% here: "CC(C)(C)C(=O)c1cnc(Nc2ccccc2)s1"
criterion met

Dear colleague, could you confirm whether COc1ccc(C2NCCCC2c2ccccc2)cc1 (stereo unspecified) has activation at or above 20%?
criterion not met

Hello, I need to know if "Cc1nnsc1C(=O)N/N=C/c1cccc(C(F)(F)F)c1" has measured activation not below 20%. Thanks!
criterion not met

Next:
Kindly determine if activation recorded for "COC(=O)c1cn(CC(=O)NCc2cccs2)c2ccccc12" is above or exactly 20%.
criterion met
